For each entry below, report its binding above PBS-coated wells value.
Biological target: T1, PirA (Vibrio parahaemolyticus)
T1 construct: also called JHE-like toxin PirA-like; vp19
T1 chain: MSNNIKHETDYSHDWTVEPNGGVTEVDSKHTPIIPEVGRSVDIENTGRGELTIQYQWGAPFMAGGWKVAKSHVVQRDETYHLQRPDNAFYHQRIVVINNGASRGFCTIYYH
Assay: phage ELISA, antigen-coated wells

Record NBX0825 (VHH, on phage in the phage ELISA) VHH: QVQLQESGGGVVETGGSLSVSCVASGRTFSAYTMAWFRQSPGKEREFVASMSRGSAAYYTDSVRGRFAISRVGDKNTVHLQMRDLKPEDTAVYYCAGGSPGSSQIATPEAYTYWGQGTQVTVSA , field binding above PBS-coated wells: ≥ 50%

Record NBX0813 (VHH, on phage in the phage ELISA) VHH: QVQLQESGGGLVQAGGSLRLSCVVSGMLFSIRNMRWYRQAPGKQRELVAQIGSSGNTDYVESVKGRFTISRDNAKNTVYLQMNSLKPEDTAVYFCNALNYWGKGTLVTVSS , field binding above PBS-coated wells: ≥ 50%
